system: A549 NSCLC; assay: NCI tumour cell line growth inhibition, 48 h
assay.readout: TGI

Below, each entry is followed by its recorded TGI result.
# molecule, TGI
data = [
    ("O=S(=O)(O)c1ccc2c(N=Nc3ccc(S(=O)(=O)O)c4ccccc34)c(O)c(S(=O)(=O)O)cc2c1", "> 100 µM"),
    ("Cn1c2ccccc2c2ccc3c(c21)C(=O)C(c1ccccc1)=CC3=O", "> 100 µM"),
    ("C=CCOCn1cc(F)c(=O)[nH]c1=O", "> 100 µM"),
]

[in] Query TGI on A549 NSCLC for COc1ccccc1[As]=[As]c1ccccc1OC (stereo not drawn)
[out] 0.289 µM

[in] Query TGI on A549 NSCLC for COc1ccc(OC)c(/C=C2\CCc3ccccc3C2=O)c1
[out] 65.6 µM

[in] Query TGI on A549 NSCLC for O=CC1C(Cl)=Nc2nc3ccccc3n2C1c1ccccc1 (stereo not drawn)
[out] 76.6 µM

[in] Query TGI on A549 NSCLC for CC(C)OC(=O)[C@H]1ON2O[C@H](O[C@@H]3CCCC[C@H]3c3ccccc3)C([Si](C)(C)c3ccccc3)[C@H]3OC(=O)[C@@H]1C32 (stereo partly drawn)
[out] > 100 µM

[in] Query TGI on A549 NSCLC for COc1ccc(O)cc1C(O)c1ccccc1 (stereo not drawn)
[out] > 100 µM

[in] Query TGI on A549 NSCLC for O=C(Nc1cc(F)c(F)cc1C(=O)O)c1ccc(-n2ccnc2)nn1
[out] > 100 µM

[in] Query TGI on A549 NSCLC for COC1=C2CC(C)CC(OC)C(OC(=O)CN)[C@H](C)/C=C(\C)C(OC(N)=O)C(OC)/C=C\C=C(/C)C(=O)NC(=CC1=O)C2=O (stereo partly drawn)
[out] 21.8 µM

[in] Query TGI on A549 NSCLC for NS(=O)(=O)c1ccc(NC(=O)C2C(=O)C(=O)N(c3ccc(S(N)(=O)=O)cc3)C2=O)cc1 (stereo not drawn)
[out] > 100 µM

[in] Query TGI on A549 NSCLC for COc1ccc(-c2cc(-c3ccc(Cl)cc3)nc(NCCCCNc3ccnc4cc(Cl)ccc34)n2)cc1
[out] 3.9 µM

[in] Query TGI on A549 NSCLC for c1ccc2c(c1)c1c3c(c4c(n32)=NCCN4)CCC1
[out] > 100 µM

[in] Query TGI on A549 NSCLC for O=C(c1ccc([N+](=O)[O-])cc1)C(Br)C(Br)c1ccnc2ccccc12 (stereo not drawn)
[out] 30.5 µM

[in] Query TGI on A549 NSCLC for Cc1ccc(N=C2N=C(N3CC(C)OC(C)C3)c3ccccc32)cc1 (stereo not drawn)
[out] > 100 µM

[in] Query TGI on A549 NSCLC for CCC(=O)N1C/C(=C/c2ccc(Br)cc2)C(=O)/C(=C/c2ccc(Br)cc2)C1
[out] 10.8 µM

[in] Query TGI on A549 NSCLC for C(=C\C(Sc1ccccc1)c1ccccc1)/NNC1=NC(c2ccccc2)C(c2ccccc2)=NN1 (stereo not drawn)
[out] > 100 µM

[in] Query TGI on A549 NSCLC for CCOC(=O)CSC1NC(C(=O)OC)CC1OC (stereo not drawn)
[out] > 100 µM

[in] Query TGI on A549 NSCLC for CC1C=CC(C(N)C(=O)O)O1 (stereo not drawn)
[out] > 100 µM

[in] Query TGI on A549 NSCLC for CCOC(=O)c1c(N2CCCC2)[nH]c(=O)c(C(c2ccc(Cl)c([N+](=O)[O-])c2)c2c(O)c(C(=O)OCC)c(N3CCCC3)[nH]c2=O)c1O
[out] > 100 µM

[in] Query TGI on A549 NSCLC for C#C[C@@]1(O)[C@@H](CO)O[C@@H](n2cc(C(F)(F)F)c3c(N)ncnc32)[C@@H]1O
[out] > 19.7 µM

---

system: NCI-H23 lung; experiment: NCI tumour cell line growth inhibition, 48 h
In this section we review reported TGI values for a set of molecules.

Below, each entry is followed by its recorded TGI result.
# molecule, result
data = [
    ("COc1cc2c3c(n(CCCNCCCNCCN)c(=O)c2cc1OC)-c1cc2c(cc1C3=O)OCO2", "78.7 µM"),
    ("CCOC(=O)c1[nH]c2cc(OC)c(OC)cc2c1CN(C)C", "> 100 µM"),
    ("CCS(=O)c1c2cc(OC)ccc2nc2ccc(OC)cc12 (centres undefined)", "19.9 µM"),
]

Shift focus to the following entry.
[in] Query TGI on NCI-H23 lung for CC1C[C@]2(C[C@@H](C)C(=O)O2)OC2CC3(C)C4CCC5C(C)(C)OC(=O)CC[C@@]56C[C@@]46CC[C@]3(C)C12 (some centres undefined)
[out] > 100 µM

---

test system: OVCAR-3 ovarian; experiment: NCI tumour cell line growth inhibition, 48 h
In this section we review reported TGI values for a set of molecules.
Field: numeric (µM). Do not append units.

Below, each entry is followed by its recorded TGI result.
# molecule, study.target, TGI [µM]
data = [
    ("CCC(C)C1=C(O)[N+]2([O-])Oc3ccc(C4=C(O)C(=O)C(c5ccc(O)cc5)=C(O)C4=O)cc3OC2(C(C)CC)C(=O)N1O (stereo not given)", "OVCAR-3 ovarian", 49.1),
    ("Nc1cccc(OCC2CCCN3CCCCC23)c1 (stereo not given)", "OVCAR-3 ovarian", 38.2),
    ("COc1ccc2c(c1)C(OC)C1c3c(cc4c(c3-2)OCO4)CCN1C (stereo not given)", "OVCAR-3 ovarian", 25.1),
]

[in] Fill in: TGI of Clc1ccc2c(c1)N(C1CCCN(Cc3ccccc3)C1)c1ccccc1S2 (stereo not given) is ___
[out] 24.4

[in] Fill in: TGI of COC(=O)c1ccc(C)cc1CC1Cc2cccc(C)c2C1=O (stereo not given) is ___
[out] 30.7

[in] Fill in: TGI of O=CC1C(Cl)=Nc2nc3ccccc3n2C1c1ccccc1 (stereo not given) is ___
[out] 43.2

[in] Fill in: TGI of CC/C(Cl)=N\OC(=O)Nc1ccc(OC)c(C)c1 is ___
[out] 50

[in] Fill in: TGI of COc1ccc(OC)c(/C=C2\CCc3ccccc3C2=O)c1 is ___
[out] 7.67

[in] Fill in: TGI of COc1ccc(C(=O)c2cc3c(N)c(C(=O)Nc4cccc(Br)c4C)sc3nc2C)cc1 is ___
[out] 1.05

[in] Fill in: TGI of CC(=O)c1ccccc1NC(=O)C(=O)C(C(=O)c1ccccc1-c1ccccc1)C1OC(=O)c2ccccc21 (stereo not given) is ___
[out] 48.1

---

In this section we review reported TGI values for a set of molecules.
system: COLO 205 colon; test: NCI tumour cell line growth inhibition, 48 h

Below, each entry is followed by its recorded TGI result.
# molecule, TGI
rows = [
    ("CN(C)c1ccc(/C=N/c2nc3cc4sc(/N=C/c5ccc(N(C)C)cc5)nc4cc3s2)cc1", "> 100 µM"),
    ("CC(NC1=CC(=O)c2cccnc2C1=O)C(O)c1ccccc1 (stereo unspecified)", "3.42 µM"),
    ("O=C(O)CCCNc1ncc2c(n1)-c1ccccc1OC2", "> 100 µM"),
    ("COc1cc2c(oc(=O)c3cc4cc([Si](C)(C)C)oc4c(OC)c32)c2cccc(O)c12", "> 100 µM"),
]

[in] Fill in: TGI of c1ccc(Oc2ccc(Nc3ncc(-c4ccccc4)o3)cc2)cc1 is ___
[out] > 25 µM

[in] Fill in: TGI of CS(=O)(=O)OCCCSCCSCCCOS(C)(=O)=O is ___
[out] > 100 µM

---

system: HCT-116 colon; assay: NCI tumour cell line growth inhibition, 48 h
assay.readout: TGI (µM)
Field: numeric (µM). Do not append units.

Below, each entry is followed by its recorded TGI result.
# molecule, TGI [µM]
records = [
    ("COc1ccc(C2C(C#N)=C(N)Oc3c2sc2c(Br)cccc32)cc1 (stereo unspecified)", 12.3),
    ("CS(=O)(=O)c1ccc2nc(-c3ccc(O)cc3)sc2c1", 30.5),
]

[in] Fill in: TGI of CC(=O)c1ccccc1NC(=O)C(=O)C(C(=O)c1ccccc1-c1ccccc1)C1OC(=O)c2ccccc21 (stereo unspecified) is ___
[out] 32.5

---

In this section we review reported TGI values for a set of molecules.
tested on: OVCAR-4 ovarian; assay: NCI tumour cell line growth inhibition, 48 h

Below, each entry is followed by its recorded TGI result.
# molecule, TGI
rows = [
    ("N#Cc1nc(C#N)c(Sc2ccccc2)c(Sc2ccccc2)c1Sc1ccccc1", "> 27.8 µM"),
    ("CN(C)CCOc1cc2c(c3ccccc13)-c1ccccc1C2O (stereo unspecified)", "32.9 µM"),
    ("COc1ccc(-c2cn(-c3ccc(OC)c(OC)c3)c(=O)[nH]2)cc1", "> 100 µM"),
]

[in] Query TGI on OVCAR-4 ovarian for NC(CCP(=O)(O)O)C(=O)O (stereo unspecified)
[out] > 100 µM

[in] Query TGI on OVCAR-4 ovarian for CCC1(CC)N=C(C(F)(F)F)c2cc(C(=O)C(F)(F)F)c3ccccc3c2N1
[out] > 100 µM

[in] Query TGI on OVCAR-4 ovarian for O=C(CC(C(=O)c1ccsc1)c1ccsc1)c1ccsc1 (stereo unspecified)
[out] > 100 µM
